# target.or.system: Protein-glutamine gamma-glutamyltransferase (Homo sapiens, UniProt P21980)
# Sequence (P21980 whole entry): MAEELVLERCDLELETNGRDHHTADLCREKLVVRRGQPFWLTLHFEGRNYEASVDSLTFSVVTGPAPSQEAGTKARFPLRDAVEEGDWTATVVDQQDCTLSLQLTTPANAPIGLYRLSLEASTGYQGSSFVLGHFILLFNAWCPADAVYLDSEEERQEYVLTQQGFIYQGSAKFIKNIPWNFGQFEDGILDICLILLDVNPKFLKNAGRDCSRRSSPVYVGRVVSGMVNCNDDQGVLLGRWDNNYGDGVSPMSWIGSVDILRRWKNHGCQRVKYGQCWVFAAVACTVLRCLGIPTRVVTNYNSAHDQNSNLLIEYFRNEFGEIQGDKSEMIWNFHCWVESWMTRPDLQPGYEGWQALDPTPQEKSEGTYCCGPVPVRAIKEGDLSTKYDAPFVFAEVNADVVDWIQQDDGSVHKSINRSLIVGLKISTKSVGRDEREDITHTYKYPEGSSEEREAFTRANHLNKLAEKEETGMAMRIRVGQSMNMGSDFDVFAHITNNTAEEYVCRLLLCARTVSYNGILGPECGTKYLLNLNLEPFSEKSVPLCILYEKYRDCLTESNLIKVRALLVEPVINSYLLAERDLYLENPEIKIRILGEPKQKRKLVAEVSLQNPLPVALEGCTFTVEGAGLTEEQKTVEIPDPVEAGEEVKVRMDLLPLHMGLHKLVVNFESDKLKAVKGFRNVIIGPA
# test.description: Irreversible inhibition of human TG2 using AL5 as substrate by colorimetric assay
Peptide text beside a SMILES is read from it. * marks the point of attachment. Cbz = O=C(OCc1ccccc1)*; Acryloyl = C=CC(=O)*
quantity.kind: Ki

# compound, quantity.kind, result
data = [
    ("C=CC(=O)NCCCC[C@H](NC(=O)OCc1ccccc1)C(=O)N1CCN(S(=O)(=O)CC)CC1", "Ki", "36 µM"),
    ("C=CC(=O)NCCCC[C@H](NC(=O)OCc1ccccc1)C(=O)N1CCN(S(=O)(=O)C(C)C)CC1", "Ki", "9.1 µM"),
    ("C=CC(=O)NCCCC[C@H](NC(=O)OCc1ccccc1)C(=O)N1CCN(C(=O)c2ccccc2)CC1", "Ki", "36.6 µM"),
    ("C=CC(=O)NCCCC[C@H](NC(=O)OCc1ccccc1)C(=O)N1CCN(C(=O)c2ccc3ccccc3c2)CC1", "Ki", "13.4 µM"),
    ("C=CC(=O)NCCCC[C@H](NC(=O)OCc1ccccc1)C(=O)N1CCOCC1", "Ki", "28.9 µM"),
    ("C=CC(=O)NCCCC[C@H](NC(=O)OCc1ccccc1)C(=O)N1CCN(C(=O)c2ccncc2)CC1", "Ki", "38.7 µM"),
    ("C=CC(=O)NCCCC[C@H](NC(=O)OCc1ccccc1)C(=O)N1CCN(S(=O)(=O)Cc2ccccc2)CC1", "Ki", "14.7 µM"),
    ("C=CC(=O)NCCCC[C@H](NC(=O)OCc1ccccc1)C(=O)NCC(=O)OC (Cbz-Lys(Acryloyl)-Gly-OMe)", "Ki", "40 µM"),
    ("C=CC(=O)NCCCC[C@H](NC(=O)OCc1ccccc1)C(=O)N1CCN(S(=O)(=O)c2cccc3c(N(C)C)cccc23)CC1", "Ki", "12.9 µM"),
]
